- assayDetails: NCI Yeast Anticancer Drug Screen. Data for the bub3 strain (AID 167)
- conditionLabel: S. cerevisiae bub3 mutant strain, at 50.0 µM, active compounds read high
This is part of a sample that, as a whole, favours compounds with a hit. Of some 79,000 tested, about 15% had one in any assay.
quantity: growth inhibition (%)
// return numeric value only (unit: %, not printed)

Record excerpt, results attached:
CNC(=S)n1ncnc1N | -3.75
COc1cc2c(cc1OC)C1CC(O)(c3nccc4cc(OC)c(OC)cc34)CCN1CC2 (stereo unspecified) | -1.3

Ask: Query: growth inhibition; subject: CC(C(=O)O)C1(O)CCCCC1 (stereo unspecified)
Reply: 13.7

Ask: Another compound to look at: CC(C)c1cccc(C(C)C)c1NC(=O)Nc1cccc(C(F)(F)F)c1
Reply: 10.2
